Tested On: Syk (Homo sapiens)
Assay: High Throughput Syk Biochemical Assay (KinEASE TR-FRET)
Experimental Context: TABLE D, 20 μM ATP, 1 μM biotinylated peptide, 0.015 nM Syk, 30 min at room temperature, read-out: IC50
pIC50: −log10 of the molar value.
Measurement Kind: pIC50

                           structure_string  measurement_kind   val
0  C[C@@H](Oc1nc(-c2ccc(S(C)(=O)=O)cc2)cc2ncn(C)c12)[C@H]1CNC(=O)C1             pIC50  7.56
1  C[C@@H](Oc1nc(-c2ccc3c(cnn3C)c2)cc2ncn(C)c12)[C@H]1CNC(=O)C1             pIC50  8.02
2  CC(=O)N1CCN(c2ccc(-c3cc4ncn(C)c4c(O[C@H](C)[C@H]4CNC(=O)C4)n3)cc2)CC1             pIC50  8.50
3  COc1ccc(-c2cc(O[C@H](C)[C@H]3CNC(=O)C3)c3sc(C)nc3c2)cc1OC             pIC50  7.16

Values were extracted from patent US10005774B2.
